TARGET_UNDER_TEST: UniProt:O14684
Sequence (O14684 whole entry): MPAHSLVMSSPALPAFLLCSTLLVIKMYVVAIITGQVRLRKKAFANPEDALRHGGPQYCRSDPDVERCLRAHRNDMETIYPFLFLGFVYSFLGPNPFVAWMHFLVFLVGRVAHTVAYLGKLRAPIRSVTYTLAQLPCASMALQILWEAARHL
ASSAY_INFO: Inhibition of recombinant human mPGES-1 expressed in CHO cells assessed as reduction in PGE2 formation at 1 uM using PGH2 a substrate preincubated for 10 mins followed by substrate addition measured after 1 min relative to control
Assay type: cell-based
MEASUREMENT_NAME: inhibition (%)

CC1(C)Oc2nc(C#Cc3c(F)cccc3C(F)(F)F)ccc2-c2nc(-c3c(F)cccc3Cl)[nH]c21    75
CC1(C)Oc2cc(I)ccc2-c2[nH]c(-c3c(F)cccc3Cl)nc21    44.3
CC1(C)Oc2cc(Br)ccc2-c2[nH]c(-c3c(F)cccc3Cl)nc21    40.8
CC1(C)Oc2cc(C(=O)NC3CCCCC3)ccc2-c2nc(-c3c(F)cccc3Cl)[nH]c21    56
CC1(C)Oc2cc(-c3cccc(OC(F)(F)F)c3)ccc2-c2[nH]c(-c3c(F)cccc3Cl)nc21    97.9
CC1(C)Oc2cc(-c3nc(C4CC4)no3)ccc2-c2[nH]c(-c3c(F)cccc3Cl)nc21    89
CC1(C)Oc2cc(C(=O)Nc3cccc(C(F)(F)F)c3)ccc2-c2[nH]c(-c3c(F)cccc3Cl)nc21    70.4
CC1(C)Oc2cc(C(=O)Nc3ccc(Cl)c(F)c3)ccc2-c2[nH]c(-c3c(F)cccc3Cl)nc21    83.5
CC1(C)Oc2nc(C#Cc3cc(C(F)(F)F)ccc3Cl)ccc2-c2nc(-c3c(F)cccc3Cl)[nH]c21    65
CC1(C)Oc2cc(-c3ccc(OC(F)(F)F)cc3)ccc2-c2[nH]c(-c3c(F)cccc3Cl)nc21    70.1

1. CC1(C)Oc2cc(-c3ccc(Cl)cc3)ccc2-c2[nH]c(-c3c(F)cccc3Cl)nc21
2. CC1(C)Oc2cc(-c3nc4ccccc4[nH]3)ccc2-c2nc(-c3c(F)cccc3Cl)[nH]c21
3. Cc1csc(NC(=O)c2ccc3c(c2)OC(C)(C)c2nc(-c4c(F)cccc4Cl)[nH]c2-3)n1
Request: Form: Sort by [inhibition] Order [ ascending ] Form field (ranking): labels in requested order.
Result: 2, 3, 1
(2: 12.2%, 3: 52.8%, 1: 76%)

---

ASSAY_INFO: AUC (0 to 24 hrs) in Guinea pig at 100 mg/kg, po
Type: ADME, organism-based, Cavia porcellus
Parameters: time < 24 hr, dose 100 mg/kg, route oral
DETAILS: in vivo
MEASUREMENT_NAME: AUC(0-t) at 24 h (ng·h/mL)
Record the value in ng·h/mL, omitting the unit from your answer.

// AUC(0-t) at 24 h value for `CC1(C)Oc2cc(-c3cccc(OC(F)(F)F)c3)ccc2-c2[nH]c(-c3c(F)cccc3Cl)nc21` : 13400

---

ASSAY_INFO: AUC (0 to 24 hrs) in Sprague-Dawley rat at 10 mg/kg, po
Assay type: ADME, organism-based
Set-up: dose 10 mg/kg, time < 24 hr, route oral
DETAILS: in vivo
MEASUREMENT_NAME: AUC(0-t) at 24 h (ng·h/mL)

CC1(C)Oc2cc(-c3cccc(OC(F)(F)F)c3)ccc2-c2[nH]c(-c3c(F)cccc3Cl)nc21    12600
CC1(C)Oc2cc(C#Cc3cc(Cl)ccc3F)ccc2-c2[nH]c(-c3c(F)cccc3Cl)nc21    12400
